# Test system: M14 melanoma
# assay.procedure: NCI tumour cell line growth inhibition, 48 h
Reported TGI values for the following molecules.

Below, 3 molecules whose answers are already recorded.
molecule | TGI
C[C@]12CC[C@H](OC(=O)Cc3ccc(N(CCCl)CCCl)cc3)CC1CC[C@@H]1C2CC[C@]2(C)NC(=O)CCC12 (stereo partly specified) | 28.8 µM
CN(C)C(=O)C(NCCO)c1ccccc1 (stereo unspecified) | > 100 µM
CCCCN1C(=O)C2c3[nH]c4ccccc4c3C3CCCCC3C2C1=O (mixture of isomers) | 42.8 µM

// sample Nc1ccc([As](=O)(O)O)cc1 , its TGI was > 100 µM

====

Reported TGI values for the following compounds.
# Test system: IGROV1 ovarian
# assay.procedure: NCI tumour cell line growth inhibition, 48 h

IGROV1 ovarian data for COc1cc(C(=O)O)cc2c1[nH]c1ccccc12 ; its TGI: > 25 µM

IGROV1 ovarian data for NC(N)=NS(=O)(=O)c1ccc(NC(=O)c2cccn3c(=O)c4ccccc4nc23)cc1 ; its TGI: > 100 µM

IGROV1 ovarian data for COC1CC(=O)C2C(=O)N(c3ccccc3)C(=O)C23C(C(=O)c2ccccc2)=C(C)NC13O (centres undefined) ; its TGI: 27.5 µM

IGROV1 ovarian data for CC(=O)N(C(=O)CC(=O)NNCc1ccccc1Cl)c1ccc(Cl)cc1 ; its TGI: > 10 µM

IGROV1 ovarian data for Cc1nnc(N2C(=O)C(=Cc3ccc(Cl)cc3)N=C2c2ccc(Cl)cc2)nc1/C=C\c1ccc(N(C)C)cc1 ; its TGI: > 100 µM

IGROV1 ovarian data for CCCCN1C(=O)C2c3[nH]c4ccccc4c3C3CCCCC3C2C1=O (mixture of isomers) ; its TGI: 75.9 µM

====

# Test system: OVCAR-3 ovarian
# assay.procedure: NCI tumour cell line growth inhibition, 48 h
Reported TGI values for the following molecules.

molecule | TGI
Cc1cccc(NC(N)=S)c1 | > 100 µM
Nc1c(C(=O)c2cccc(C(O)(CO)CO)c2)cnn1-c1ccc(F)cc1 | > 25 µM
CC1(OCc2ccccc2)C(=O)N2C1N(C(=O)OCc1ccccc1)CC2(C)C (centres undefined) | > 100 µM
CCC(C#N)NCc1ccc(CNC(C#N)CC)cc1 (centres undefined) | > 100 µM
Cc1cccc(C)c1NC(=O)C(=O)C(c1ccccc1Cl)S(=O)(=O)Cc1ccccc1Cl (centres undefined) | > 100 µM

// sample CN(C)CCn1c2c(c3ccccc31)CCc1ccccc1-2 , its TGI was 27.7 µM

// sample O=C1OCCC12CN(Cc1ccccc1)N=N2 (centres undefined) , its TGI was > 100 µM

====

# Tested on: OVCAR-4 ovarian
# assay.procedure: NCI tumour cell line growth inhibition, 48 h; in the data active means GI50 below about 0.43 µM; inactive means the rest
# output must be one of active, inactive

Worked examples, 4 compounds total:
compound | subject.of.test | label
C=C(C)[C@@H]1CC[C@]2(C(=O)N3CCN(C)CC3)CC[C@]3(C)[C@H](CC[C@@H]4[C@@]5(C)C/C(=C/c6ccncc6)[C@H](O)C(C)(C)[C@@H]5CC[C@]43C)[C@@H]12 | OVCAR-4 ovarian | inactive
N=C(N)c1ccc(CS(=O)(=O)F)cc1 | OVCAR-4 ovarian | inactive
CS(=O)(=O)c1nccc(-c2c(-c3cccc(OCc4ccccc4)c3)nc3sccn23)n1 | OVCAR-4 ovarian | inactive
COc1ccc(C(=O)OC2C(OC3C(O)COC(O[C@H]4C[C@H]5[C@@H]6CC=C7C[C@@H](O)CC[C@]7(C)[C@H]6CC[C@]5(C)[C@H]4[C@H](C)C(=O)CCC(C)C)C3OC(=O)C(C)C)OCC(O)C2O)cc1 (stereo not given in full) | OVCAR-4 ovarian | active

Next compound, please.
Please indicate how the test categorized COc1ccc2c(c1)O/C(=C\c1ccc([N+](=O)[O-])o1)C2=O . inactive

====

# System: MOLT-4 leukemia
# assay.procedure: NCI tumour cell line growth inhibition, 48 h; in the data active = GI50 below about 0.43 µM; inactive = the rest
# output must be one of active, inactive

Worked examples, 4 compounds total:
smiles.string | label
CN(C)c1ccc(/C=N/NC(=O)CSc2nc3sc4c(c3c(=O)n2-c2ccccc2)CCCCC4)cc1 | inactive
CN(Cc1ccccc1)c1ncnc2ccc(Br)cc12 | inactive
COc1ccc2nc(-c3ccc(Cl)cc3)cc(-c3nnc(SCC(=O)Nc4ccc(/C(C)=N\O)cc4)o3)c2c1 | inactive
C=C(C)[C@@H]1CC[C@]2(C(=O)N3CCN(C)CC3)CC[C@]3(C)[C@H](CC[C@@H]4[C@@]5(C)C/C(=C/c6ccncc6)[C@H](O)C(C)(C)[C@@H]5CC[C@]43C)[C@@H]12 | inactive

Next compound, please.
Please indicate how the test categorized O=C1C2=C(C(=O)c3c(O)ccc(O)c31)N(c1cccnc1)Cc1ccccc1O2 . active

====

# Test system: HCT-15 colon
# assay.procedure: NCI tumour cell line growth inhibition, 48 h; in the data active = GI50 below about 0.43 µM; inactive = the rest
# output must be one of Yes = active, No = inactive

Worked examples, 4 compounds total:
smiles.string | label
O=C1c2cccc3c([N+](=O)[O-])ccc(c23)C(=O)N1CCCCl | No
O=C(NCCN1CCOCC1)Nc1nc2ccc(Sc3nnc4ccc(-c5ccc(F)cc5)nn34)cc2s1 | No
CC/C=C\C[C@H](O)C/C=C1/C(=O)C=C[C@@H]1C/C=C\CCCC(=O)OCCS(=O)(=O)c1ccccc1 | No
C/C(=N\NC(=O)c1cccc(S(=O)(=O)N2CCN(C)CC2)c1)c1cc(Cl)ccc1O | Yes

Next compound, please.
Please indicate how the test categorized OCCNC(=S)Nc1ccc(-c2nc(N3C[C@H]4CC[C@@H](C3)O4)c3cccn3n2)cc1 . Yes

====

# Tested on: HCT-15 colon
# assay.procedure: NCI tumour cell line growth inhibition, 48 h
outcome.measure: log10 TGI (log10 of the value in µM)
Base-10 log of TGI, unit µM.

Below, 4 compounds whose answers are already recorded.
compound | log10 TGI
Nc1ncnc2c1ncn2C1OC(CO)CC1O (stereo unspecified) | 1.92
N#Cc1c(N)n(C2OC(CO)C(O)C2O)c2ncnc(N)c12 (stereo unspecified) | -0.79
Cc1ccc(C(=O)Nc2ccc(CN3CCN(C)CC3)c(C(F)(F)F)c2)cc1C#Cc1cnc(N)c2ccc(C#N)cc12 | 0.94
CN(Cc1ccccc1)c1ncnc2ccc(Br)cc12 | 1.51

Next, consider the following compound.
HCT-15 colon data for CN(C)CCNC(=O)c1ccccc1Nc1c(Cl)cccc1Cl ; its log10 TGI: 1.45

====

# Test system: ACHN renal
# assay.procedure: NCI tumour cell line growth inhibition, 48 h
Everything with TGI lower than 30 µM is 0 (no); everything else, including exactly 30 µM, is 1 (yes).

compound | label
Cc1c2ccccc2c(CSC(=N)N)c2ccccc12 | 0 (no)
CC(/C=C/C=C\C=C\C=C(/C)C(=O)NC(C)CO)=C\C(C)C(O)/C(C)=C/C(C)CCc1ccccc1 (stereo not given) | 0 (no)
COc1ccc(C(=C(C#N)C#N)c2ccc(OC)cc2)cc1 | 1 (yes)
CCOc1cccc2sc(N)nc12 | 1 (yes)
C=CC(C)CCC(C/C=C(\C)CCCC(C)C)C(=C)CCCC(C)C (stereo not given) | 1 (yes)
CS(=O)(=O)c1nccc(-c2c(-c3cccc(OCc4ccccc4)c3)nc3sccn23)n1 | 1 (yes)
CCCCCCCCCCCCCCC(C(=O)[O-])[n+]1ccccc1 (stereo not given) | 1 (yes)
[O-]c1ccccc1[C-]=Nc1ccccc1O.[O-]c1ccccc1[C-]=Nc1ccccc1O.[O]=[U]=[O] | 0 (no)
COC(=O)C12OCC34C(CC5C(C)C6=CC(=O)OC6=CC5(C)C3C(O)C1O)OC(=O)C(OC(C)=O)C24 (stereo not given) | 1 (yes)

Next compound, please.
Could you please find out whether CCN(CC)c1ccc(CNc2cc(C)nc3ccc(OC)cc23)cc1 has TGI that meets 30 µM or exceeds it? 0 (no)

====

Reported TGI values for the following molecules.
# Tested on: EKVX NSCLC
# assay.procedure: NCI tumour cell line growth inhibition, 48 h
The reply should contain only the number, in µM.

smiles.string | TGI [µM]
CCN(CC)c1ccc(CNc2cc(C)nc3ccc(OC)cc23)cc1 | 15.3
Cc1c2ccccc2c(CSC(=N)N)c2ccccc12 | 1.33
CCOC(=O)CC[C@H](NC(=O)c1ccc(CNc2nc3cc(C(F)(F)F)ccc3nc2C(=O)OCC)cc1)C(=O)OCC | 42.7

Next, consider the following molecule.
EKVX NSCLC data for COc1cc2c(NCCN(C)C)nc3c4cc5c(cc4ccc3c2cc1OC)OCO5 ; its TGI: 8.25

====

# System: PC-3 prostate
# assay.procedure: NCI tumour cell line growth inhibition, 48 h
Reported TGI values for the following compounds.

compound | subject.of.test | TGI
C=C(C)[C@@H]1CC[C@]2(C(=O)N3CCN(C)CC3)CC[C@]3(C)[C@H](CC[C@@H]4[C@@]5(C)C/C(=C/c6ccncc6)[C@H](O)C(C)(C)[C@@H]5CC[C@]43C)[C@@H]12 | PC-3 prostate | 16.7 µM
O=C(NCCN1CCOCC1)Nc1nc2ccc(Sc3nnc4ccc(-c5ccc(F)cc5)nn34)cc2s1 | PC-3 prostate | > 100 µM
CCOc1cc(/C=N\O)cc(/C=N/O)c1O | PC-3 prostate | > 100 µM
C=CC(C)CCC(C/C=C(\C)CCCC(C)C)C(=C)CCCC(C)C (stereo not drawn) | PC-3 prostate | > 100 µM
Cc1nc2ccc(F)cc2c2c1CCN2c1ccccc1 | PC-3 prostate | 86.2 µM

// sample O=C(O)COc1cc(-c2ccccc2F)nc2cc3c(cc12)OCO3 , its TGI was > 100 µM

Reference source for all entries: PubChem BioAssay (NCI)
